- System: SF-539 CNS
- Test: NCI-60 one-dose screen, 48 h
- Experimental Context: 10 µM unless noted
This is part of a sample that, as a whole, favours compounds with a hit. Of some 83,000 tested, about 20% had one in any assay. The source made the active and inactive calls. Rule for the calls: active = growth percent below 10; inactive = the rest.
Select the matching outcome among active, inactive

Would you please look over these solved cases?
- Compound: "COc1ccc(-c2nc3ccc(Cc4ccc5nc(-c6ccc(OC)cc6)[nH]c5c4)cc3[nH]2)cc1"
  Cat: "inactive"
- Compound: "CCN(CC)CCCCCCCNc1cc(OC)cc2c(C)ccnc12"
  Cat: "inactive"

For COc1ccccc1NC(=O)OCC12COCN1COC2 , which call appears in the assay record? inactive

Would you mind telling me which call this test gave c1ccc2c(c1)cnc1ccccc12 ? inactive

---

Measured growth by item
- System: HOP-62 NSCLC
- Test: NCI-60 one-dose screen, 48 h (100 = growth as untreated, 0 = no growth, -100 = all killed)
- Experimental Context: 10 µM unless noted
The panel holds about 83,000 compounds, 20% with a hit somewhere; the sample as a whole holds those more often.
Express the result in % but write the number alone.

Some solved entries appear below for comparison.
- Compound: "CC1=C(O)C(=O)C(c2c(C)cc(C)c(Br)c2C)=C(O)C1=O"
  Value: 69.9
- Compound: "COc1ccc(C2CC(c3cccc(Nc4ccnc5cc(Cl)ccc45)c3)=NN2c2ccccc2)cc1 (stereo unspecified)"
  Value: 60
- Compound: "Cc1ccc(CSCc2ccc(C(=O)NC3CC3)o2)cc1"
  Value: 109
- Compound: "O=C(Cn1nncc1CN1C(=O)CSC1=O)Nc1ccc(F)cc1"
  Value: 97.2
- Compound: "CC1=NOCC(=O)N1"
  Value: 105
- Compound: "COc1cc2nccc(Oc3ccc(NC(=O)C4(C(=O)Nc5ccc(F)cc5)CC4)cc3)c2cc1O"
  Value: 57.6

Find growth (HOP-62 NSCLC) for the entry CC1CCN(Cc2ccc(NC(=O)c3cc4ccc5cccnc5c4[nH]3)cc2)CC1 26.2

What measured growth is associated with COc1cc(-c2csc(NC(=O)Nc3cccc(C(F)(F)F)c3)n2)cc(OC)c1OC on HOP-62 NSCLC? 63.6

Request body: readout growth, system HOP-62 NSCLC, query CCCCCCCCCCCCCC(=S)NCCCC[C@H](NC(=O)OCc1ccccc1)C(=O)Nc1ccccc1 . Return the value. 58.4

---

- System: CCRF-CEM leukemia
- Test: NCI-60 one-dose screen, 48 h (100 = growth as untreated, 0 = no growth, -100 = all killed)
- Experimental Context: 10 µM unless noted
The panel holds about 83,000 compounds, 20% with a hit somewhere; the sample as a whole holds those more often.
Endpoint Name: growth (%)
State just the number; it will be interpreted in %.

- Compound: "Cc1ccc2cc3c(NC(=O)c4cccnc4)nn(C)c3nc2c1"
  Experimental System: "CCRF-CEM leukemia"
  growth [%]: 72.2

Consider the compound Cc1c(O)c(=O)n(-c2ccccc2)n1C and give its measured growth. 118

Could you share which growth value was measured for CC(=O)OC1Oc2cc(C)c(C)cc2-c2oc(=O)c(-c3ccc(F)cc3)cc21 (centres undefined) ? 36

Quick one: growth of Cn1nc(C(F)(F)F)cc1-c1c[nH]c(OCc2ccc(Cl)cc2)c(-c2ccc(Cl)c(C(F)(F)F)c2)c1=O ? 10.5

For the compound shown here, COc1ccc(/C=c2\c(=O)n(-c3ccccc3)c3nn4c(n23)=NNC42CCCCC2)cc1 , give the reported growth. 101

What value of growth has been reported for the following compound? O=C1/C(=C\c2cccn2Cc2ccc(Cl)cc2)c2ccccc2N1c1c(Cl)cccc1Cl 82.4

Which growth is reported for this compound? COc1ccc(/C=C2\CCCC3=C2N=C2SC(C)=NN2C3c2ccc(OC)c(OC)c2)cc1OC (centres undefined) 3.82

Item under review: CC[C@H](Nc1nc(C)nc(N)c1C#N)c1nc2cccc(NCc3ccc(C(=O)NO)cc3)c2c(=O)n1-c1ccccc1 . Reported growth? 6.17

// lookup growth for CCOC(=O)c1ccccc1SC(C[N+](=O)[O-])c1ccccc1 (centres undefined) 65.5

---

- Test system: K-562 leukemia
- Test: NCI-60 one-dose screen, 48 h
- Experimental Context: 10 µM unless noted
Compounds without any hit were thinned out: in the full panel of roughly 83,000, 20% have a hit. Activity calls are given as the source filed them. How the source made its calls: active means growth percent below 10; inactive means the rest.
In this exercise, the only acceptable responses are active, inactive

Reference set (3 entries):
- Molecule: "CC(C)c1ccc(Cn2ccc3c4c(N)nc(NC5CC5)nc4ccc32)cc1"
  Cat: "active"
- Molecule: "CC(C)COC(=O)NC(C)(C)C"
  Cat: "inactive"
- Molecule: "COc1cc(C)c2c(=O)c3c(oc2c1)C(=O)c1c(O)c(OC)cc(O)c1C3=O"
  Cat: "active"

Dear colleague, could you share the recorded outcome for COc1ccc(NC(=O)/C=C/c2ccc(NC(=O)N3CCCC3)cc2)cn1 when you have a moment? inactive

Hello, I am checking results. What call was entered for Cc1cc(NC(=O)c2ccc(N)cc2)ccc1N=Nc1ccc2cc(S(=O)(=O)O)cc(S(=O)(=O)O)c2c1 ? inactive

Dear colleague, could you share the recorded outcome for O=Cc1ccc2nc(C(Cl)(Cl)Cl)ccc2c1 when you have a moment? inactive

Which result was noted for this molecule in the test: C=CCOc1c(Br)cc(Br)cc1Br inactive

Lab log entry: O=C1CC2(O)CSc3nc(=O)cc(n32)N1 (configuration not stated) — outcome as called in the assay? inactive

Recorded call for COc1cc(/C=C/C(=O)c2ccc(NC(=O)CSc3nnc(-c4ccc(Cl)cc4)n3-c3ccccc3)cc2)cc(OC)c1OC ? inactive

In this assay, the call recorded for C=CCn1c(SCC(=O)Nc2ccc(C(=O)/C=C/c3ccc(Cl)cc3)cc2)nnc1-c1ccc(Cl)cc1 was what? inactive

What did this assay record as the result for CC(C)(C)c1ccc(Cn2c(-c3nonc3N)nc3ccccc32)cc1 ? inactive

# fetch the recorded call for CCCCNCC(O)c1cc(-c2ccc(C(F)(F)F)cc2)nc(-c2ccc(C(F)(F)F)cc2)c1 (configuration not stated) here active

Would you mind telling me which call this test gave Clc1ccccc1Nc1nnc(-c2ccncc2)s1 ? inactive

# lookup: test call for Oc1ccc(Cl)cc1-c1cc(-c2ccccc2Cl)[nH]n1 inactive

Fill in: this test's call for CCOC(=O)c1ccc(NC(=O)NC2=NCCS2)cc1 is ___ inactive

How was COc1ccc(C2=CC(c3ccc(OC)cc3Br)N3C=CSC3=N2)cc1 (configuration not stated) classified in this test? active

Recorded test call requested for Cc1cc(NC(=O)C2c3ccccc3C(=O)N(CC(C)C)C2c2cccs2)no1 (configuration not stated) active

Can you look up the reported call for O=C1c2ccccc2C(=O)c2c1oc1ccc3ccccc3c21 for me? inactive

Which outcome was entered for the molecule CN(C)CCOc1nc2c3ccncc3cc(-c3cccc(Cl)c3)c2c2cnccc12 in this test? active

Outcome? Cc1nc2ccc(Nc3nc(NCCN4CCOCC4)nc(Nc4ccc(F)cc4)n3)cc2n1Cc1ccccc1 active

What was the test verdict on CCCc1n(Cc2ccc3ccccc3n2)cc[n+]1Cc1ccc2ccccc2n1 ? inactive

Returns: the outcome recorded for Nc1nc(N)c2c(n1)NC(c1sc(Cl)nc1Cl)CC(c1ccccc1)=N2 (configuration not stated) in this assay. inactive

---

- System: SK-MEL-28 melanoma
- Test: NCI-60 one-dose screen, 48 h (100 = growth as untreated, 0 = no growth, -100 = all killed)
- Experimental Context: 10 µM unless noted
About 83,000 compounds went through this panel and 20% of them were active in at least one assay; those are over-represented in the sample as a whole.
Endpoint Name: growth (%)
Numeric only. Scale: %

- Compound: "CCOc1cccc(/C=N/NC(=O)c2ccc(Nc3ccnc(C(F)(F)F)c3)cc2)c1O"
  growth / %: 19.2

Request: growth, test system SK-MEL-28 melanoma, entry COc1ccc2nc(C)cc(Nc3ccccc3O)c2c1 33.4

---

Listed here are compounds together with their documented growth.
- Test system: T-47D breast
- Test: NCI-60 one-dose screen, 48 h (100 = growth as untreated, 0 = no growth, -100 = all killed)
- Experimental Context: 10 µM unless noted
The panel holds about 83,000 compounds, 20% with a hit somewhere; the sample as a whole holds those more often.
Write down the numeric answer in % and omit the unit.

// known answers, use as guide
- Compound: "O=C1Cc2c([nH]c3ccc([N+](=O)[O-])cc23)-c2ccccc2N1"
  growth (%): 22.1
- Compound: "CCCc1n(Cc2ccc3ccccc3n2)cc[n+]1Cc1ccc2ccccc2n1"
  growth (%): 7.17
- Compound: "COc1ccc(/C(=C\\c2cc(OC)c(OC)c(OC)c2)C(=O)N2CCNCC2)cc1"
  growth (%): 82.8
- Compound: "Cc1ccc2nc(CN(CCN(Cc3nc4ccc(C)cc4[nH]3)Cc3nc4ccc(C)cc4[nH]3)Cc3nc4ccc(C)cc4[nH]3)[nH]c2c1"
  growth (%): -93
- Compound: "CC(C)(C)CC(C)(C)NCc1cc(C(C)(C)C)cc(CNC(C)(C)CC(C)(C)C)c1O"
  growth (%): 14.5

Tell me the measured growth of Fc1ccc2nc(-c3ccc(-c4noc(-c5ccc(Cl)cc5)n4)cc3)[nH]c2c1 , please. 92.9

// growth lookup, key: OC(c1cc2c(Cl)cc(Cl)cc2c2cc(C(F)(F)F)ccc12)C1CCCCN1 (stereo unspecified) -78.5

Would you mind telling me what growth value was observed for CCc1ccc2c(c1)N(CCO)C1=C(C(=O)OC1)C2c1cccc(Br)c1 (stereo unspecified) ? 47.5

Query (compound): O=c1[nH]cnc2nc[nH]c12 ; field requested: growth 111

Please look up its growth: COc1cc(OC)cc(-c2n/c(=C\c3c(O)[nH]c4ccc(Cl)cc34)cc3c2=Nc2ccccc2-3)c1 84.9
